Test system: VEGF-121 (Homo sapiens), P15692-9
Sequence: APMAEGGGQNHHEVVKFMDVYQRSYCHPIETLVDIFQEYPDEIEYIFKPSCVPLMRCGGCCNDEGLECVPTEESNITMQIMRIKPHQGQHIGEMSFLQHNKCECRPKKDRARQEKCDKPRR
ASSAY SUMMARY: filter
CONDITIONS: NapdU at 4,5,10,13,14,16,21,22,23,27; rest DNA; SB18T, 37 C; Table 13 gives 0.14 nM
ENDPOINT LABEL: pKd
Lab note — pKd values are minus log10 of concentrations in M.

In: VEGF-121 (Homo sapiens), P15692-9 / pKd / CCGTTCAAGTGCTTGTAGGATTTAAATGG [4867-31_143] : value?
Out: 9.77

###

System: VEGF-121 (Homo sapiens), P15692-9
Sequence: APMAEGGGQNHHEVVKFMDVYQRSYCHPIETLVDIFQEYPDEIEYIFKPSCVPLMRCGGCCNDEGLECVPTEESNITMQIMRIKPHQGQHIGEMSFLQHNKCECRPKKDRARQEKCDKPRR
ASSAY SUMMARY: filter
CONDITIONS: as 4867-31_192; PS 3' of 6; 3' inverted dT
ENDPOINT LABEL: pKd
Quick note: pKd values are minus log10 of concentrations in mol/L.

In: Give recorded pKd with VEGF-121 (Homo sapiens), P15692-9 for the following sequence: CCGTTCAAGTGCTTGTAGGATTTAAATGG [4867-31_438]
Out: 10.89

###

System: VEGF-165 (Homo sapiens), P15692-4
Sequence: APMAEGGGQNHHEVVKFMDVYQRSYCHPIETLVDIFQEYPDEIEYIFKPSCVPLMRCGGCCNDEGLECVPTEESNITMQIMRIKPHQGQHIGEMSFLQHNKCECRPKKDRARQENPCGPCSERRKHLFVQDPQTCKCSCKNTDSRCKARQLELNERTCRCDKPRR
ASSAY SUMMARY: filter
CONDITIONS: Nap-dU, Bn-dU; C3; 3 Heg linker; 2'-OMe; VEGF
ENDPOINT LABEL: Kd (pM)
Field: numeric (pM). Do not append units.

In: Request body: readout Kd, system VEGF-165 (Homo sapiens), P15692-4, query CCGTTCAAGTGCTTTAGATTTAAATGGTTACGTTACACGCGTTTATAGC [4149-8_316] . Return the value.
Out: 157

###

Measured Kd, listed per entry for reference.
Test system: VEGF-165 (Homo sapiens), P15692-4
Sequence: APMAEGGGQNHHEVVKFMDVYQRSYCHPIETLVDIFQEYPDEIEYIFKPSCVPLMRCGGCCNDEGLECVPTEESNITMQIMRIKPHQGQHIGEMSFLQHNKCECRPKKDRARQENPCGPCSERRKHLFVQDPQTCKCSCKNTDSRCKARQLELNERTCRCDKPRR
ASSAY SUMMARY: filter
CONDITIONS: P=Nap-dU
Reply with just the number (in nM).

>  <SEQ TEXT>
CAATCAGCCGTTCAAGTGCTTGTAGGATTTAAATGGAA [4867-31_32]

>  <ENDPOINT LABEL>
Kd

>  <OBSERVED RESULT>
0.1

$$$$
>  <SEQ TEXT>
CAATCAGCCGTTCAAGTGCTTGTAGGATTTAAATGGA [4867-31_38]

>  <ENDPOINT LABEL>
Kd

>  <OBSERVED RESULT>
0.17

$$$$
>  <SEQ TEXT>
AATCAGCCGTTCAAGTGCTTGTAGGATTTAAATGGAA [4867-31_33]

>  <ENDPOINT LABEL>
Kd

>  <OBSERVED RESULT>
0.11

$$$$
>  <SEQ TEXT>
ATCAGCCGTTCAAGTGCTTGTAGGATTTAAATGGAAT [4867-31_28]

>  <ENDPOINT LABEL>
Kd

>  <OBSERVED RESULT>
0.1

$$$$

Pending sequence:
In: # get_value(readout='Kd', item= TCAGCCGTTCAAGTGCTTGTAGGATTTAAATGGAA [4867-31_35] )
Out: 0.11

###

SUBJECT OF TEST: PDGF-BB (platelet-derived growth factor BB) (Homo sapiens) (UniProt P01127)
Sequence (P01127 82-190): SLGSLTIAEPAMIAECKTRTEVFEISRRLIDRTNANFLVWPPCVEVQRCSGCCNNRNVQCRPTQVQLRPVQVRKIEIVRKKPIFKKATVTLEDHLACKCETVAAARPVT
ASSAY SUMMARY: filter
CONDITIONS: VEGF-3Heg-PDGF; NapdU, BndU
ENDPOINT LABEL: pKd
Conceptually, pKd converts a concentration in mol/L into minus its log10.

In: Query (sequence): CCGTTCAAGTGCTTTAGATTTAAATGGTTACGTTACACGCGTTTATAGC [4149-8_316] ; field requested: pKd
Out: 10.05

###

System: VEGF-121 (Homo sapiens), P15692-9
Sequence: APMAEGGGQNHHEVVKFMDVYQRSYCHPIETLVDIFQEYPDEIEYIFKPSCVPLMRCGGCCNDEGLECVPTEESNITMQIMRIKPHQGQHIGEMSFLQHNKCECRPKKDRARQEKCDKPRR
ASSAY SUMMARY: filter
CONDITIONS: Bn-dU, MBn-dU, Nap-dU, 2'-OMe, C3; 4 Heg between parts
ENDPOINT LABEL: pKd
By convention, pKd is the negative base-10 log of a molar concentration.

In: Give the reported pKd for TTACGTTACCGCGTTTATAGCGCCGTTCAAGTGCTTGTAGGATTTAAATGG [4149-8_415] (system: VEGF-121 (Homo sapiens), P15692-9).
Out: 10.40

###

Below is a list of entries, each paired with its recorded pKd value.
Test system: VEGF-165 (Homo sapiens), P15692-4
Sequence: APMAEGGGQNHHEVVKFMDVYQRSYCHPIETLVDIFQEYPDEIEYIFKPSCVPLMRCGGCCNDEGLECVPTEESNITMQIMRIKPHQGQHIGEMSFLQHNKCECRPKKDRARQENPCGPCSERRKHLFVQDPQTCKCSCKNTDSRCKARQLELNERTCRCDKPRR
ASSAY SUMMARY: filter
CONDITIONS: P=Nap-dU
Scale note: pKd = -log10(concentration in M).

>  <SEQ TEXT>
ATCAGCCGTTCAAGTGCTTGTAGGATTTAAATGGAA [4867-31_34]

>  <pKd>
9.46

$$$$
>  <SEQ TEXT>
AATCAGCCGTTCAAGTGCTTGTAGGATTTAAATGGA [4867-31_39]

>  <pKd>
9.70

$$$$
>  <SEQ TEXT>
ATCAGCCGTTCAAGTGCTTGTAGGATTTAAATGGA [4867-31_40]

>  <pKd>
9.85

$$$$

In: Fill in the blank: the reported pKd of AGCCGTTCAAGTGCTTGTAGGATTTAAATGGAA [4867-31_37] is ____.
Out: 10.04

In: Another sequence: AGCCGTTCAAGTGCTTGTAGGATTTAAATGGAAT [4867-31_31]
Out: 9.77

###

Test system: VEGF-121 (Homo sapiens), P15692-9
Sequence: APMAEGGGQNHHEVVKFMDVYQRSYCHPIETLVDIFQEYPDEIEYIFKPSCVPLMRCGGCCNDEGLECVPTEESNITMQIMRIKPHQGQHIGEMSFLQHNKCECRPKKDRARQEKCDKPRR
ASSAY SUMMARY: filter
CONDITIONS: NapdU at P; C3 spacer 15,18; 2'-OMe 9,17
ENDPOINT LABEL: Kd (nM)
Just the number in nM, nothing appended.

In: Fill blank: measured Kd of the sequence CCGTTCAAGTGCTTTAGATTTAAATGG [4867-31_184] is ____.
Out: 0.084

###

SUBJECT OF TEST: PDGF-BB (platelet-derived growth factor BB) (Homo sapiens)
ASSAY SUMMARY: filter
CONDITIONS: NapdU at P; 2'-OMe 1,6,18
ENDPOINT LABEL: Kd (nM)
Quick note: give the figure in nM, leave out the unit.

In: Kd for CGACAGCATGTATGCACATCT [5169-4_107] ?
Out: 0.013

###

SUBJECT OF TEST: PDGF-BB (platelet-derived growth factor BB) (Homo sapiens)
ASSAY SUMMARY: filter
CONDITIONS: Nap-dU, Bn-dU, MBn-dU, 2'-OMe, C3; 6 Heg between parts
ENDPOINT LABEL: Kd (nM)
Reply with just the number (in nM).

In: Name the reported Kd value associated with the sequence CCGTTCAAGTGCTTGTAGGATTTAAATGGTTACGTTACCGCGTTTATAGCG [4149-8_413]
Out: 0.01

###

System: VEGF-121 (Homo sapiens), P15692-9
Sequence: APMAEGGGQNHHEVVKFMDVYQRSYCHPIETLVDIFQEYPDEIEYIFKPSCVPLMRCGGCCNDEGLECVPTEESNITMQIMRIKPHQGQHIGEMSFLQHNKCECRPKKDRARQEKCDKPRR
ASSAY SUMMARY: filter
CONDITIONS: PDGF-VEGF, no Heg linker; NapdU, BndU
ENDPOINT LABEL: pKd
Conceptually, pKd converts a concentration in mol/L into minus its log10.

In: Could you share what pKd was measured for TTACGTTACACGCGTTTATAGCGCCGTTCAAGTGCTTTAGATTTAAATG [4149-8_317] , tested on VEGF-121 (Homo sapiens), P15692-9?
Out: 10.09
